B1: CPEB3 Ribozyme (parent)
chain: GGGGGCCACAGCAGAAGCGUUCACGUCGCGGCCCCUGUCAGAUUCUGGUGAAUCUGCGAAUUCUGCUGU

- Variants of: B1
- Assay Method Text: self-cleavage, relative activity (ratio to wild type); higher = more cleavage; co-transcriptional
Quantity: self-cleavage
Numbers only.

The following variants have reported results that may help.
> print(dat)
                            record.sequence  recorded.result
1  GGGGGCCACAGCAAAAGCGUUCACGUCGCGCCCCCUGUCAGAUUCUGGUGAAUCUGCGAAUUCUGCUGU            0.183
2  GGGGGCCACAGCAGAAGCGUUCACGUCGCGGCCCCUGUCAGAUUCUCGUGAAUCUGCGAAUUCUGCCGU            0.993
3  GGGGGCCACAGCAGAAGCGUUCUCGUCGCGGCCCCUGUCAGAUUCUGGUAAAUCUGCGAAUUCUGCUGU             1.01

I need self-cleavage for every entry listed below, if you could help.
1. GGGGGCCACAGCAGAAGCGUUCACGUCGCGGCCUCUGUCAGAUUCUGGUGAAUCUUCGAAUUCUGCUGU
2. GGGGGCCACAACAGAAGCGUUCACGUCGCAGCCCCUGUCAGAUUCUGGUGAAUCUGCGAAUUCUGCUGU
3. GGGGGCCACAGCAGAAGCGUUCAAGUCUCGGCCCCUGUCAGAUUCUGGUGAAUCUGCGAAUUCUGCUGU
4. GGGGGCCACAGCAGAAGCGUUCACGUCGCGGCCCCUGUCAGAUUCUGGUGGAUCUGCGAAUUCUGCCGU
5. GGGGGCCACAGCAGAAGCGUUCACGUCGUGGCCCCUGUCAGAUUCUGGUGAAUCUGCGAAUUCUGCUUU
6. GGGCGCCAAAGCAGAAGCGUUCACGUCGCGGCCCCUGUCAGAUUCUGGUGAAUCUGCGAAUUCUGCUGU
7. GGGGGCCACAGCAGGAGCGUUCACGUCGCGGCCCCUGUCAGAUUCUGGUGAAUCUGCGAGUUCUGCUGU

1: 0.975; 2: 0.663; 3: 0.127; 4: 0.99; 5: 0.515; 6: 0.905; 7: 0.821

I need self-cleavage for every entry listed below, if you could help.
1. GGGGGCCACAGCAGAAGCGUUCACGUCGCGGCCCCUGUCAGAUUCUGAUGAAUCUGCGAAUUCUGCUGA
2. CGGGGCCACAGCAGAAGCGUUCACGUCGCGGCCCCUGUUAGAUUCUGGUGAAUCUGCGAAUUCUGCUGU

1.02
0.227
